This section presents compounds with their documented concentration at 0.25 hr values.
# test name: Pharmacokinetics of Nab-2 in monkeys
# Type: in vivo
# measurement setup: male, blood; Nab-2 IV 5 mg/kg, cynomolgus monkey; time 0.25 hr; label = analyte
Answer in ng/mL, number only, no unit symbol.

CCCCCC(=O)O[C@@H](C(=O)O[C@H]1C[C@@]2(O)[C@@H](OC(=O)c3ccccc3)C3[C@](C)(C(=O)[C@H](O)C(=C1C)C2(C)C)[C@@H](O)C[C@H]1OC[C@@]31OC(C)=O)[C@@H](NC(=O)OC(C)(C)C)c1ccccc1 (some centres unmarked) has a reported concentration at 0.25 hr of 940

Short answer for CC(=O)O[C@@]12CO[C@@H]1C[C@H](O)[C@@]1(C)C(=O)[C@H](O)C3=C(C)[C@@H](OC(=O)[C@H](O)[C@@H](NC(=O)OC(C)(C)C)c4ccccc4)C[C@@](O)([C@@H](OC(=O)c4ccccc4)C12)C3(C)C (some centres unmarked) [Docetaxel, docetaxel, reference compound] : concentration at 0.25 hr was 40.7
